target of assay: human CD46 expressed on 293 cells (human) (UniProt P15529)
assay: FACS, 293 cells expressing human CD46, pH 7.4
quantity kind: EC50 (µg/mL)
Entry rule: numbers only, all in µg/mL.

// solved cases for EC50 follow
{"columns": ["binder", "EC50 [µg/mL]"],
 "data": [
  ["BA-133-04-01 (antibody, V domains shown) VH: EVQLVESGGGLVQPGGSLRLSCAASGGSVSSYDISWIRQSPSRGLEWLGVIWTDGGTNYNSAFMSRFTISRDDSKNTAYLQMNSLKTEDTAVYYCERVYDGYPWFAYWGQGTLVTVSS VL: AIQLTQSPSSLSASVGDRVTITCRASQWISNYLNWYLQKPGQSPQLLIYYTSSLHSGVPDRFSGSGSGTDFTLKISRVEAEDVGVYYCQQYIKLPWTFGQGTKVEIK", 1.34],
  ["BA-133-04-04 (antibody, V domains shown) VH: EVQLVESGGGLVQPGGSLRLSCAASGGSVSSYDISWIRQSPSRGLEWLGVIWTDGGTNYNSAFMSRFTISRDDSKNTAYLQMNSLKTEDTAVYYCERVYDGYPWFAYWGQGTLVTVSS VL: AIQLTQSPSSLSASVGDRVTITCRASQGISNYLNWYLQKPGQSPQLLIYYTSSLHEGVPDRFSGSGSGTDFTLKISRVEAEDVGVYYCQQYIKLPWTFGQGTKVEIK", 0.647]
]}

In: For the binder shown here, BA-133-04-03 (antibody, V domains shown) VH: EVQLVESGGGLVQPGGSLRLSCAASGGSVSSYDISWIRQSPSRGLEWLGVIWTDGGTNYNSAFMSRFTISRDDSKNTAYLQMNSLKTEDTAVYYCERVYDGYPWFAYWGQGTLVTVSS VL: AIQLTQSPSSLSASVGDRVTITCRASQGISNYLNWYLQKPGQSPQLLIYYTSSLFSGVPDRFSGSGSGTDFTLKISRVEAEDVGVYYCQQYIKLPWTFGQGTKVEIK , give the reported EC50.
Out: 0.427
